Biological target: OAT1 (Homo sapiens, UniProt Q4U2R8)
Sequence (Q4U2R8 whole entry): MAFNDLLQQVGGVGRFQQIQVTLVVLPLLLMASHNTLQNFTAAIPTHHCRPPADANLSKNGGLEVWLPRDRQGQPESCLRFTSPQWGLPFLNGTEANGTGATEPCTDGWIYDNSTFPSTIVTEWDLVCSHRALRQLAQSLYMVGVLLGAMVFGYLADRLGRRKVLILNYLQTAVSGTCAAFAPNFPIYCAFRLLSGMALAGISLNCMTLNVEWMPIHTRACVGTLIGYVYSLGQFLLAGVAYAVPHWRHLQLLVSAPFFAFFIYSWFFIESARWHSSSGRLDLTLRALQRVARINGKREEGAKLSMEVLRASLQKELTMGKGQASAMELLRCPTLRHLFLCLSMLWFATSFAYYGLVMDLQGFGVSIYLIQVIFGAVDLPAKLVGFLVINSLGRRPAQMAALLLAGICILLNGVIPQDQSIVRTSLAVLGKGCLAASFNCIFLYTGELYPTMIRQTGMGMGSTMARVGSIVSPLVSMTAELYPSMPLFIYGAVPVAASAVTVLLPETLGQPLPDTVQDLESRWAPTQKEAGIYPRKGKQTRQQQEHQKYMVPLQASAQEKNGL
Test: OAT1 uptake inhibition in transfected HEK cells
Format: in vitro ADME
Conditions: read-out: IC50, OAT1; HEK cells; substrate PAH, reference probenecid

{"columns": ["compound", "IC50"],
 "data": [
  ["CC(=O)c1cc(C(=O)N[C@@H](C)Cn2ccc(-c3ccc(C#N)c(Cl)c3)n2)[nH]n1 [Keto-darolutamide, keto-darolutamide]", "> 2 µM"]
]}

###

Biological target: CYP2A6 (Homo sapiens, UniProt P11509)
Sequence (P11509 whole entry): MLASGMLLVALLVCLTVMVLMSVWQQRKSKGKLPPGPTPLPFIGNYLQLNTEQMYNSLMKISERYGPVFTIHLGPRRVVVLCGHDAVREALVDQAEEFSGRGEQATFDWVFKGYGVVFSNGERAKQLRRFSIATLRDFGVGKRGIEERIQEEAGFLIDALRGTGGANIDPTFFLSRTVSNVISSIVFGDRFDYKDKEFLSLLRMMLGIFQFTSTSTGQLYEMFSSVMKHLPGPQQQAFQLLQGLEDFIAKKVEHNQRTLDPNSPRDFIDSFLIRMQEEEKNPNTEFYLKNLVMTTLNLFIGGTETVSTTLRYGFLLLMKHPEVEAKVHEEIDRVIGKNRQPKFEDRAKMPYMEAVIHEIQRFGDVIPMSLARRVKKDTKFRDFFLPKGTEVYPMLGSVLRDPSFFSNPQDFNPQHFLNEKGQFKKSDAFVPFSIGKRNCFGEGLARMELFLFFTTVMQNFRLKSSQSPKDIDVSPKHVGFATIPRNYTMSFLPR
Test: CYP2A6 inhibition in human liver microsomes
Type: in vitro ADME
Conditions: read-out: IC50, CYP2A6; human liver microsomes; substrate coumarin
pIC50: −log10 of the molar value.

{"columns": ["molecule", "pIC50"],
 "data": [
  ["C[C@H](O)c1cc(C(=O)N[C@@H](C)Cn2ccc(-c3ccc(C#N)c(Cl)c3)n2)n[nH]1 [(S,S)-darolutamide]", "< 4.30"],
  ["CC(=O)c1cc(C(=O)N[C@@H](C)Cn2ccc(-c3ccc(C#N)c(Cl)c3)n2)[nH]n1 [Keto-darolutamide, keto-darolutamide]", "< 4.00"],
  ["C[C@@H](Cn1ccc(-c2ccc(C#N)c(Cl)c2)n1)NC(=O)c1cc([C@@H](C)O)[nH]n1 [(S,R)-darolutamide]", "< 4.30"]
]}

###

Target: CYP2B6 (Homo sapiens)
Sequence (P20813 whole entry): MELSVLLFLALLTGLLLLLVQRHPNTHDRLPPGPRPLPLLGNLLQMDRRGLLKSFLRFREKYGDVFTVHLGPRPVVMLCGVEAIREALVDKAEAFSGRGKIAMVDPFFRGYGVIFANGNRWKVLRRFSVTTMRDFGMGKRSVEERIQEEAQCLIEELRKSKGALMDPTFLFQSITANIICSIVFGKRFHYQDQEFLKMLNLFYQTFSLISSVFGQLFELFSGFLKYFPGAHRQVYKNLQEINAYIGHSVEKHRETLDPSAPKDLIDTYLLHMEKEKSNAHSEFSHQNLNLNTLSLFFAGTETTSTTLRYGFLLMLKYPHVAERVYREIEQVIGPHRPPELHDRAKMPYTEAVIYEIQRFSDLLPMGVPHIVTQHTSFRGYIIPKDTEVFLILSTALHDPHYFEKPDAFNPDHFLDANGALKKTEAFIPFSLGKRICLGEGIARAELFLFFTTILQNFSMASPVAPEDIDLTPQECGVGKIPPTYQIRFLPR
Assay: biochemical
Type: in vitro ADME
readoutKind: IC50

{"columns": ["compound", "readoutKind", "dataValue"],
 "data": [
  ["CC(O)c1cc(C(=O)N[C@@H](C)Cn2ccc(-c3ccc(C#N)c(Cl)c3)n2)[nH]n1 (stereo partly shown) [Darolutamide, darolutamide]", "IC50", "> 100 µM"]
]}

###

Biological target: CYP2C8 (Homo sapiens, UniProt P10632)
Sequence (P10632 whole entry): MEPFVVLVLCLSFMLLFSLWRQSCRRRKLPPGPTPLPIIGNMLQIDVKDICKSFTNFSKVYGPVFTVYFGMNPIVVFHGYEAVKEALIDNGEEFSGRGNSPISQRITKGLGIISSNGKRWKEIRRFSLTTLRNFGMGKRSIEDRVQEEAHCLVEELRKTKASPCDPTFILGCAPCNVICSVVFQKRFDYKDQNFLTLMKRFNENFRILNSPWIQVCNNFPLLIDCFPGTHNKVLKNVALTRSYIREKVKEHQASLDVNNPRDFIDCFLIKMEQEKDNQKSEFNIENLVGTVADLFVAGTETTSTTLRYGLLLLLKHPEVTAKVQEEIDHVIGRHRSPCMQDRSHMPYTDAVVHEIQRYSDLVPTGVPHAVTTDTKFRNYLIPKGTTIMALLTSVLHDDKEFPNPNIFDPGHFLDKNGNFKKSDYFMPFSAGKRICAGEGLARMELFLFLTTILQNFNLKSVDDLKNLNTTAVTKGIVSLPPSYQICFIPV
Test: CYP2C8 inhibition in human liver microsomes
Assay type: in vitro ADME
Details: read-out: IC50, CYP2C8; human liver microsomes; substrate paclitaxel

{"columns": ["compound", "u", "IC50"],
 "data": [
  ["CC(=O)c1cc(C(=O)N[C@@H](C)Cn2ccc(-c3ccc(C#N)c(Cl)c3)n2)[nH]n1 [Keto-darolutamide, keto-darolutamide]", "µM", 48.6]
]}

###

Molecular target: NTCP (Homo sapiens, UniProt Q14973)
Sequence (Q14973 whole entry): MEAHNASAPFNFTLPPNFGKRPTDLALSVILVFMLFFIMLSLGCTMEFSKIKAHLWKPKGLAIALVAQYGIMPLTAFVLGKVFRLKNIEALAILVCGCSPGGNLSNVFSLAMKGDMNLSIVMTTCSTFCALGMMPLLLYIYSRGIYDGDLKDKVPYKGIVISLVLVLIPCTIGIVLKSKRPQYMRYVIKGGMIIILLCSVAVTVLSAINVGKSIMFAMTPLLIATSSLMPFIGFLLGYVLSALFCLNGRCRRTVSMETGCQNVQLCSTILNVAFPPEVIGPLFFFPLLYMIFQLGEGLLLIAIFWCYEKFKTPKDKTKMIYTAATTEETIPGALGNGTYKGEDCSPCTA
Assay: NTCP uptake inhibition in transfected HEK cells

{"columns": ["compound", "IC50"],
 "data": [
  ["CC(O)c1cc(C(=O)N[C@@H](C)Cn2ccc(-c3ccc(C#N)c(Cl)c3)n2)[nH]n1 (stereo partly shown) [Darolutamide, darolutamide]", "> 50 µM"]
]}

###

Target: MRP2 (Homo sapiens)
Sequence (Q92887 whole entry): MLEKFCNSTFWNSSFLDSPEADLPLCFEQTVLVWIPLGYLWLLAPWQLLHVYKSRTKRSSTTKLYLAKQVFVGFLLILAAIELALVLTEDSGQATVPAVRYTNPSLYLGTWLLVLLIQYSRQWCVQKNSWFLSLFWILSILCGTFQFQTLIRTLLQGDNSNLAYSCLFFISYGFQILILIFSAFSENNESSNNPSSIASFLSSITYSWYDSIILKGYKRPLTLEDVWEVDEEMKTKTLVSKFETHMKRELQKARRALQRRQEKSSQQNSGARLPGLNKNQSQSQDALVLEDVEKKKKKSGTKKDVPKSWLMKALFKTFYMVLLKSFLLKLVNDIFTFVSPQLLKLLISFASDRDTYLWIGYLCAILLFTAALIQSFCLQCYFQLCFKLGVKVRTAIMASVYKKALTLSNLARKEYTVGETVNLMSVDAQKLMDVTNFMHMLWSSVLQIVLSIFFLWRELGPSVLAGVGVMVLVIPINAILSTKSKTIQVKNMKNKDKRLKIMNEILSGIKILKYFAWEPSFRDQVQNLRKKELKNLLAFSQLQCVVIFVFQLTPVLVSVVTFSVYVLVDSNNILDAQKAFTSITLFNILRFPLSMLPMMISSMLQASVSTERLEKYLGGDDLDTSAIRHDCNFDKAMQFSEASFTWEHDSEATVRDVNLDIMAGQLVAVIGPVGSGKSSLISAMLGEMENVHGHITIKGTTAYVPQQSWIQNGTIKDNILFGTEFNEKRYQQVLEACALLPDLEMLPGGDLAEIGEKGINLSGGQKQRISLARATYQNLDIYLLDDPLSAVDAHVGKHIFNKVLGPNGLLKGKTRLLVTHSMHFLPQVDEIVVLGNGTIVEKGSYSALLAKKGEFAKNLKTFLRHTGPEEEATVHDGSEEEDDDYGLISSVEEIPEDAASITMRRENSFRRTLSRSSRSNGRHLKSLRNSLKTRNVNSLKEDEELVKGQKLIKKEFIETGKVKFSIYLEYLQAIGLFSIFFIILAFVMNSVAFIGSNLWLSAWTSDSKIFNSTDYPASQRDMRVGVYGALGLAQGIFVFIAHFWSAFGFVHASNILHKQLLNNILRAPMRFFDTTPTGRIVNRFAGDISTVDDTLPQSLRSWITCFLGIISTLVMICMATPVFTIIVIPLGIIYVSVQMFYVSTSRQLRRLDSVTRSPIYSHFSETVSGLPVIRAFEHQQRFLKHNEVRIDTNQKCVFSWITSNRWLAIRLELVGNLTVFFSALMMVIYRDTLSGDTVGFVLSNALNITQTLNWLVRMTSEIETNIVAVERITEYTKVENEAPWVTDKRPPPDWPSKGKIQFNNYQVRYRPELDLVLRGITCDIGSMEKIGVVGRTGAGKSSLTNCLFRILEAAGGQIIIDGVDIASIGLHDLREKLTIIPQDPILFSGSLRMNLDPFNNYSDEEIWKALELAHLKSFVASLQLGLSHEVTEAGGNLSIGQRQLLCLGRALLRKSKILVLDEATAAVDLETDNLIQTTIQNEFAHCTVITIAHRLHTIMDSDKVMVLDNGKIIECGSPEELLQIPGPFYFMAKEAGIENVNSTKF
Test: MRP2 inhibition in transfected HEK cells
Type: in vitro ADME
Conditions: read-out: IC50, MRP2; HEK cells; substrate CDCF, reference benzbromarone
pIC50: −log10 of the molar value.

{"columns": ["compound", "pIC50"],
 "data": [
  ["CC(=O)c1cc(C(=O)N[C@@H](C)Cn2ccc(-c3ccc(C#N)c(Cl)c3)n2)[nH]n1 [Keto-darolutamide, keto-darolutamide]", "< 5.00"]
]}

###

Target: OCT2 (Homo sapiens)
Sequence (O15244 1-555): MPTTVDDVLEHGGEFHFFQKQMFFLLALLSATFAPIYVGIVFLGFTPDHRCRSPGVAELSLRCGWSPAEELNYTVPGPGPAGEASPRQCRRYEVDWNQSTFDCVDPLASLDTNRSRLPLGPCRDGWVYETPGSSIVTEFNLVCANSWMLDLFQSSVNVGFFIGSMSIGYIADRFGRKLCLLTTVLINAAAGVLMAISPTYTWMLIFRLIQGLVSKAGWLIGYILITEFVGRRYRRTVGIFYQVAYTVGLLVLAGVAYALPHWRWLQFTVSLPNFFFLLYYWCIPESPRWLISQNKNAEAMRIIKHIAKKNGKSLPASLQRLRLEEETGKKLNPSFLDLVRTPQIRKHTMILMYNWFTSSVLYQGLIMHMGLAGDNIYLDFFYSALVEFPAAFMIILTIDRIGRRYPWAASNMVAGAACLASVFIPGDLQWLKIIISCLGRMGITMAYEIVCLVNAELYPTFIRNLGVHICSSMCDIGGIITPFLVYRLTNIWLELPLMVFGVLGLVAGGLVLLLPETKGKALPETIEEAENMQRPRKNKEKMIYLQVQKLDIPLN
Assay: OCT2 uptake inhibition in transfected HEK cells
Assay type: in vitro ADME
pIC50: −log10 of the molar value.

{"columns": ["molecule", "systemName", "pIC50"],
 "data": [
  ["CC(O)c1cc(C(=O)N[C@@H](C)Cn2ccc(-c3ccc(C#N)c(Cl)c3)n2)[nH]n1 (stereo partly shown) [Darolutamide, darolutamide]", "OCT2 (Homo sapiens)", "< 4.30"]
]}

Values from paper PMC6828636
